All values here come from patent US20260234246A1.

kon values by entry
Target: T1, recombinant CD47 (recCD47), SinoBiological 12283-H27H-B, biotinylated (human, UniProt Q08722 19-139, biotinylated (AVI-tag))
T1 construct: Bought protein, 17 kDa; At 17 kDa it can only be a part of it; also called recombinant biotinylated CD47; not shown: C-terminal His- and AVI-tag
T1 sequence (Q08722 19-139 limits assumed): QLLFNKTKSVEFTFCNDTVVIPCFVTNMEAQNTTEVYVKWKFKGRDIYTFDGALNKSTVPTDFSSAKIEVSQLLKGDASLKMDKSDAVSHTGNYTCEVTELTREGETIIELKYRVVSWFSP
Experiment: SPR Biacore S200, single-cycle, recCD47 on SA chip 100 RU, antibody as analyte, 25 C, 1:1 model;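 further: antibodies were injected over the captured CD47 at a series of concentrations, and KD was derived as the dissociation rate constant divided by the association rate constant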
Numeric only. Scale: M⁻¹ s⁻¹

>>> observed_value("CO212 humanized IgG4 anti-CD47 antibody (antibody, V domains shown, also called huCO-mAb) VH: QVQLVQSGSELKKPGASVKVSCKASGYTFTNFGMHWVRQAPGKGLKWMGWINTYTGEPTYTDDFKGRFVFSLDTSVSTAYLQISSLKAEDTAVYYCTRGDYRYGDSWGQGTTVTVSS VL: DIVMTQTPLSLSVTPGQPASISCRSSQSLVHSNGKTYLHWYLQKPGQSPKLLIYRVSNRFSGVPDRFSGSGSGTDFTLKISRVEAEDVGVYYCSQSTHVPFTFGQGTKLEIK")
"5.8e+06"

From here, focus on the item given below.
Input: Look up kon of CO201 humanized IgG4 anti-CD47 antibody (antibody, V domains shown, also called huCO-mAb) VH: QVQLVQSGSELKKPGASVKVSCKASGYTFTNFGMHWVRQAPGQGLEWMGWINTYTGEPTYTDDFKGRFVFSLDTSVSTAYLQISSLKAEDTAVYYCARGDYRYGDSWGQGTTVTVSS VL: DIVMTQTPLSLSVTPGQPASISCRSSQSLVHSNGKTYLHWYLQKPGQPPQLLIYRVSNRFSGVPDRFSGSGSGTDFTLKISRVEAEDVGVYYCSQSTHVPFTFGQGTKLEIK and report it.
Output: 8.7e+06
